assay: chemical genetic growth profiling, strain panel (AID 1159580);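 also: tested at 20 µM; growth read once vehicle control cultures reached saturation at 30 °C; 1 = growth at the plate median or of vehicle wells; lower values mean less growth of the strain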; details: S. cerevisiae deletion strains, growth OD, locus YFR019W, strain FAB1, stronger effect = lower value
Among all 5,500 compounds or so, about 2,000 (36%) were called active. About 18% were inconclusive and are not listed. The list shows a part of the results.

| SMILES_INPUT | normalized growth |
| --- | --- |
| CCOC(=O)c1ccc2nc(N=CNO)sc2c1 | 0.909 (inactive) |
| N#C/C(=N/Nc1ccc(F)cc1)C(=O)c1ccccc1 | 0.913 (inactive) |
| CC(=O)c1ccc(Cl)c(NS(=O)(=O)c2cc(Cl)c(Cl)cc2Cl)c1 | 0.881 (inactive) |

Data provenance: PubChem BioAssay AID1159580
